Listing of entries alongside the reported IC50.
target: BIR3 domain of human XIAP (residues 252-350) (Homo sapiens (Human))
experimentalDetails: XIAP in vitro competitive displacement binding assay (fluorescence polarization)
studyConditions: read-out: IC50 or PI Xiap: IC50
Counter-ions that a name gives are not always drawn.

compound	IC50
COC[C@H]1CN[C@H](C)CN1CC(=O)N1C[C@](C)(c2ccccc2)c2ccc(C#N)cc21 [Example 140]	94 nM
CCC(F)(F)c1cc2c(cn1)C(C)(C)CN2C(=O)CN1C[C@@H](C)NC[C@@H]1CN1CC[C@@H](F)C1 [Example 214, hydrochloride]	82 nM
C[C@@H]1CN(CC(=O)N2C[C@@](C)(c3ccccc3)c3ccc(C#N)cc32)[C@@H](C(=O)N2CCOCC2)CN1 [Example 152]	65 nM
C[C@@H]1CN(CC(=O)N2CC(C)(C)c3cnc(Cc4ccccc4)cc32)[C@@H](C(=O)N2CCCCC2)CN1 [Example 133, dihydrochloride]	91 nM
COC[C@H]1CN[C@H](C)CN1CC(=O)N1CC(C)(c2ccccc2)c2ccc(C#N)cc21 (mixture of isomers) [Example 136]	110 nM
C[C@@H]1CN(CC(=O)N2CC(C)(C)c3cnc(Cc4ccc(F)cc4F)cc32)[C@@H](CN2CC[C@H](F)C2)CN1 [Example 202]	77 nM
Cc1nc(C)n(C[C@H]2CN[C@H](C)CN2CC(=O)N2CC(C)(C)c3cnc(Cc4ccc(F)cc4F)cc32)n1 [Example 206, hydrochloride]	79 nM
C[C@@H]1CN(CC(=O)N2CC(C)(C)c3ncc(Cc4ccc(F)cc4F)cc32)[C@@H](CN2CC[C@@H](F)C2)CN1 [Example 205, hydrochloride]	100 nM
CNC(=O)[C@H]1CN[C@H](C)CN1CC(=O)N1CC(C)(C)c2cc(F)c(S(=O)(=O)c3ccccc3)cc21 [Example 56, hydrochloride salt]	110 nM
C[C@@H]1CN(CC(=O)N2CC(C)(C)c3ncc(C(F)(F)CC4CC4)cc32)[C@@H](CN2CCOCC2)CN1 [Example 231, dihydrochloride]	65 nM
C[C@@H]1CN(CC(=O)N2CC(C)(C)c3cnc(Cc4ccccc4)cc32)[C@@H](Cn2cc(F)cn2)CN1 [Example 157, hydrochloride]	65 nM
COC[C@H]1CN[C@H](C)CN1CC(=O)N1CC2(CN(C(C)=O)C2)c2ccc(Cc3ccccc3)cc21 [Example 76, hydrochloride salt]	64 nM
C[C@@H]1CN(CC(=O)N2CC(C)(C)c3cnc(Cc4ccc(F)cc4F)cc32)[C@@H](Cn2ccncc2=O)CN1 [Example 195, dihydrochloride]	67 nM

----------
Listing of entries alongside the reported IC50.
target: BIR3 domain of human XIAP (residues 252-350) (Homo sapiens (Human), UniProt P98170)
Sequence (P98170 252-350): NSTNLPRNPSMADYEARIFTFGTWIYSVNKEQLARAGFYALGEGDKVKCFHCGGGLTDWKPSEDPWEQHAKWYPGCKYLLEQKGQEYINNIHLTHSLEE
experimentalDetails: XIAP in vitro competitive displacement binding assay (fluorescence polarization)
studyConditions: read-out: IC50 or PI Xiap: IC50
Counter-ions that a name gives are not always drawn.
propertyMeasured: IC50 (nM)

molecule	reportedResult
C[C@@H]1CN(CC(=O)N2CC(C)(C)c3cnc(C(F)(F)C4CC4)cc32)[C@@H](CN2CCCC2=O)CN1 [Example 212, hydrochloride]	45
COC[C@H]1CN[C@H](C)CN1CC(=O)N1CC(C)(C)c2cnc(-c3ccoc3)cc21 [Example 145, dihydrochloride]	1000
CNS(=O)(=O)c1ccc2c(c1)N(C(=O)CN1CCN[C@H](C)C1)CC2 [Example 27]	2500

src = patent US9018214B2
